pIC50 by entry:
target: SARS-CoV-2 3CL-protease (Severe acute respiratory syndrome coronavirus 2, UniProt P0DTD1); experiment: SARS-CoV-2 3C-like (3CL) protease fluorescence assay (FRET); format: biochemical; conditions: recombinant SARS-CoV-2 3CL-protease 10 nM, 30 min preincubation at RT, duplicate; read-out: FRET IC50
pIC50: −log10 of the molar value.

Readout pIC50 for `N#C[C@@H]1C[C@@]2(CN1C(=O)OCc1ccccc1)C(=O)Nc1ccccc12` , test system SARS-CoV-2 3CL-protease (Severe acute respiratory syndrome coronavirus 2, UniProt P0DTD1), was 6.00 to 7.00

Record for `N#C[C@@H]1C[C@@]2(CN1C(=O)C(=O)Nc1cccnc1C(F)(F)F)C(=O)Nc1ccccc12` under target or system SARS-CoV-2 3CL-protease (Severe acute respiratory syndrome coronavirus 2, UniProt P0DTD1): pIC50 reported as < 6.00

Bench note, SARS-CoV-2 3CL-protease (Severe acute respiratory syndrome coronavirus 2, UniProt P0DTD1): entry `N#C[C@@H]1C[C@@]2(CN1C(=O)CC(=O)N[C@H]1CC[C@H](O)C1)C(=O)Nc1ccccc12` , its pIC50 = < 6.00

The reported pIC50 value, SARS-CoV-2 3CL-protease (Severe acute respiratory syndrome coronavirus 2, UniProt P0DTD1), for `CC(C)(C(=O)C1CC1)C(=O)N1C[C@]2(C[C@H]1C#N)C(=O)Nc1ccccc12` reads < 6.00

Per the reported SARS-CoV-2 3CL-protease (Severe acute respiratory syndrome coronavirus 2, UniProt P0DTD1) data, `N#C[C@@H]1C[C@@]2(CN1C(=O)OC1CC1)C(=O)Nc1ccccc12` has pIC50 of < 6.00

pIC50 on SARS-CoV-2 3CL-protease (Severe acute respiratory syndrome coronavirus 2, UniProt P0DTD1) for `N#C[C@@H]1C[C@@]2(CN1C(=O)NC1CCCCC1)C(=O)Nc1ccccc12` is < 6.00

Entry `N#C[C@@H]1C[C@@]2(CN1C(=O)C(=O)NCCc1cc(F)cc(F)c1F)C(=O)Nc1ccccc12` , SARS-CoV-2 3CL-protease (Severe acute respiratory syndrome coronavirus 2, UniProt P0DTD1) data, pIC50 value: < 6.00

For `CC(C)NC(=O)N1C[C@]2(C[C@H]1C#N)C(=O)Nc1ccccc12` on SARS-CoV-2 3CL-protease (Severe acute respiratory syndrome coronavirus 2, UniProt P0DTD1), measured pIC50 was < 6.00

Param item: `N#C[C@@H]1C[C@@]2(CN1C(=O)C1CC1)C(=O)Nc1ccccc12` ; param system: SARS-CoV-2 3CL-protease (Severe acute respiratory syndrome coronavirus 2, UniProt P0DTD1); output pIC50: < 6.00

# pIC50 measured on SARS-CoV-2 3CL-protease (Severe acute respiratory syndrome coronavirus 2, UniProt P0DTD1) for item `N#C[C@@H]1C[C@@]2(CN1S(=O)(=O)NC1CCCCC1)C(=O)Nc1ccccc12` = < 6.00

Tested on SARS-CoV-2 3CL-protease (Severe acute respiratory syndrome coronavirus 2, UniProt P0DTD1), the item `N#C[C@@H]1C[C@@]2(CN1C(=O)c1ccc(-c3ccccc3)cc1)C(=O)Nc1ccccc12` showed pIC50 equal to < 6.00

Tested on SARS-CoV-2 3CL-protease (Severe acute respiratory syndrome coronavirus 2, UniProt P0DTD1), the item CC(C)CC(C(=O)Nc1cc(F)cc(F)c1)C(=O)N1C[C@]2(C[C@H]1C#N)C(=O)Nc1ccccc12 (stereo partly shown) showed pIC50 equal to < 6.00
